assay: NCI Yeast Anticancer Drug Screen. Data for the mlh1 rad18 strain (AID 175); details: S. cerevisiae mlh1 rad18 strain growth inhibition; at 50.0 µM; stronger effect = higher value
The panel holds about 79,000 compounds, 15% with a hit somewhere; the sample as a whole holds those more often.
endpoint label: growth inhibition (%)
Provide the reading as a plain figure in %.

Some solved entries appear below for comparison.
{"columns": ["molecule", "growth inhibition, %"],
 "data": [
  ["O=C(NCCc1c[nH]c2ccccc12)C1CC1", -25.9],
  ["COC(=O)/C(=C\\c1ccccc1N)c1cc2c(cc1Br)OCO2", 68.1],
  ["CSc1c(C(=O)Nc2ccc(C)cc2)c(N)nn1-c1ccccc1", 2.7],
  ["CC1OC(n2cc(F)c(=O)[nH]c2=O)CCC1O (centres undefined)", -60.5],
  ["N#CC(O)CCOCc1ccccc1 (centres undefined)", -14.2]
]}

Enquiry: Look up growth inhibition: "Cc1ccc(S(=O)(=O)N2CCN(S(=O)(=O)c3ccc(C)cc3)COC2)cc1"
Return: -9.85

Enquiry: Look up growth inhibition: "COc1cc([N+](=O)[O-])ccc1NC(=O)Nc1nccs1"
Return: -37.3

Enquiry: Look up growth inhibition: "O=C(O)C(=Cc1ccc(-c2ccc([N+](=O)[O-])cc2)o1)C(=O)O"
Return: 12.4

Enquiry: Look up growth inhibition: CN(C)CC1(Cc2ccccc2)CCC(Cc2ccccc2)C1=O (centres undefined)
Return: 86.3
